Catalogue of log10 IC50 values
- Assayed target: PI3K (Homo sapiens, UniProt P42336)
- Sequence (P42336 whole entry): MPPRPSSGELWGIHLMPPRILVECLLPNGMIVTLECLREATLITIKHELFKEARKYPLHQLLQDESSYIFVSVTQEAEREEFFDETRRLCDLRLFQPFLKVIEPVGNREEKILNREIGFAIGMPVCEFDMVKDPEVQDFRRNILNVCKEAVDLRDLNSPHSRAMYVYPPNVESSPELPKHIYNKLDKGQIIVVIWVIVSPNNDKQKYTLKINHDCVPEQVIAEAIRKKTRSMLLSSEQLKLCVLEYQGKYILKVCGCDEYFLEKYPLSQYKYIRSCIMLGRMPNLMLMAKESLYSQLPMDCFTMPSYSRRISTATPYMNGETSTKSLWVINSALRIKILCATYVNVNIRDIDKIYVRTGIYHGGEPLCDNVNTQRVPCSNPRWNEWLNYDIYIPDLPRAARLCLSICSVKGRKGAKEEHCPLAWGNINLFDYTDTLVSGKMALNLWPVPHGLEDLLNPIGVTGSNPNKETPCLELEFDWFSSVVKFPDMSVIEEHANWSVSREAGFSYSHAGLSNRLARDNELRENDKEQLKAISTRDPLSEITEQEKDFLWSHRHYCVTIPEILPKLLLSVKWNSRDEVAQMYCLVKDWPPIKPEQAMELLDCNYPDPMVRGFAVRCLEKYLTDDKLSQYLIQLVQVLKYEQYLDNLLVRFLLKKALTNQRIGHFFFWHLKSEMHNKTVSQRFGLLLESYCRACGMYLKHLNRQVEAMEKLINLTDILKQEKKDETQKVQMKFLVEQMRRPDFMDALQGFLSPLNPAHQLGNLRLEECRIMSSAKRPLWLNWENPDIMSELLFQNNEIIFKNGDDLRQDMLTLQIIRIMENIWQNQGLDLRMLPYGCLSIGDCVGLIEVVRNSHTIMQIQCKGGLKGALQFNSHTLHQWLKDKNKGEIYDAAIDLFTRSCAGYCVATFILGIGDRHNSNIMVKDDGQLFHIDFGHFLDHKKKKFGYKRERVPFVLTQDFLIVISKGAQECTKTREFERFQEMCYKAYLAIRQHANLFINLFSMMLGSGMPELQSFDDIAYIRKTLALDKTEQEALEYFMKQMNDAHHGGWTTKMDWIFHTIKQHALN
- Sequence (P27986 whole entry partner): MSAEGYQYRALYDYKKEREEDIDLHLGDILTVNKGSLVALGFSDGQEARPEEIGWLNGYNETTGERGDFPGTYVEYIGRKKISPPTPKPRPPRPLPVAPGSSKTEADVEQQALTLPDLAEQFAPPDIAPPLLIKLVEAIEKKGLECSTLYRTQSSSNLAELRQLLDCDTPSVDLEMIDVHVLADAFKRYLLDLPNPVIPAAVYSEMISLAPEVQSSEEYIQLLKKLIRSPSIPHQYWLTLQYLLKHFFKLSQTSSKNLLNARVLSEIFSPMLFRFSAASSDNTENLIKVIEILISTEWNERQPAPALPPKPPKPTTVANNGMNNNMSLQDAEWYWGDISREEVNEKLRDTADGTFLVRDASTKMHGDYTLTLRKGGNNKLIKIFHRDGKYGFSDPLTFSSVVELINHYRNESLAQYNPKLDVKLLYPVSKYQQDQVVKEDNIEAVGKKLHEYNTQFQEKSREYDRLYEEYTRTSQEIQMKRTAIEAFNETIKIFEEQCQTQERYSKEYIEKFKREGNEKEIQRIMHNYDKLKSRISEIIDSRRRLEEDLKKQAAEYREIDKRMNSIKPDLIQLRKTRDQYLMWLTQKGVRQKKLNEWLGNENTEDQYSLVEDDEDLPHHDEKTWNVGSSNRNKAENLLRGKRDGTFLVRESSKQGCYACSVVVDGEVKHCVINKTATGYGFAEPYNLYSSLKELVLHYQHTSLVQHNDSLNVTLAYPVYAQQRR
- Protocol: Fluorescence polarization assay for PI3K
- Assay type: biochemical
- Study conditions: PI3Kα; read-out: PI3Kα IC50
A difference of one corresponds to tenfold IC50; all values are log10 with IC50 in nM.

Solved entries (count: 5):
Q) For COC(=NC#N)Nc1ccc(-c2nc(N3CCOCC3)c3cnn(C4CCN(Cc5cccnc5)CC4)c3n2)cc1 [Compound 654] , what is its reported log10 IC50?
A) 2.77

Q) For COC(=O)Nc1ccc(-c2nc(N3CCOCC3)c3cnn(C4CCN(C(=O)N5CCN(C)CC5)CC4)c3n2)cc1 [Compound 692] , what is its reported log10 IC50?
A) 2.86

Q) For COC(=O)Nc1ccc(-c2nc(N3CCOCC3)c3cnn(C4CCN(Cc5ccc(F)cc5)CC4)c3n2)cc1 [Compound 959] , what is its reported log10 IC50?
A) 2.88

Q) For O=C(NO)Nc1ccc(-c2nc(N3CCOCC3)c3cnn(C4CCN(Cc5ccccc5)CC4)c3n2)cc1 [Compound 555] , what is its reported log10 IC50?
A) 2.30

Q) For O=C(NCCF)Nc1ccc(-c2nc(N3CCOCC3)c3cnn(C4CCN(Cc5cccnc5)CC4)c3n2)cc1F [Example 374] , what is its reported log10 IC50?
A) 2.79

Moving on to the next molecule.
Q) For Nc1ccc(-c2nc(N3CCOCC3)c3cnn(C4CCN(Cc5ccccc5)CC4)c3n2)cc1F [Compound 594] , what is its reported log10 IC50?
A) 3.22

###

- Assayed target: PI3K (Homo sapiens, UniProt P42336)
- Protocol: Fluorescence polarization assay for PI3K;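 note: PI3K kinase reaction on PIP2 with ATP, 30-60 min, product sensed by GST-GRP with red probe in fluorescence polarization (mP), controls without enzyme and at zero time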
- Assay type: biochemical
- Study conditions: PI3Kα; read-out: PI3Kα IC50
Readout label: IC50 (nM)
// note: answer is a bare numeric in nM

Q) For CNCCNC(=O)Nc1ccc(-c2nc(N3CCOCC3)c3cnn(C4CCN(Cc5ccccc5)CC4)c3n2)cc1 [Compound 545] , what is its reported IC50?
A) 13

---
Q) For CCOC(=O)N1CCC(n2ncc3c(N4CCOCC4)nc(-c4ccc(NC(=O)NC5CC5)cc4)nc32)CC1 [Compound 821] , what is its reported IC50?
A) 1120

Q) For O=C(Nc1cc(F)c(-c2nc(N3CCOCC3)c3cnn(C4CCN(C(=O)c5cccnc5)CC4)c3n2)cc1F)NC1CC1 [Compound 468] , what is its reported IC50?
A) 3560

Q) For COC(=O)Nc1ccc(-c2nc(N3CCOCC3)c3cnn(C4CCN(Cc5cccnc5OC)CC4)c3n2)cc1 [Compound 452] , what is its reported IC50?
A) 1830

###

- Test system: breast line MDA468
- Protocol: In vitro cell culture growth assay (MTS), MDA468
- Format: cell-based, human
- Study conditions: Homo sapiens, 72 h, MDA468 cells, three days after drug treatment
Catalogue of pIC50 values
By convention, pIC50 is the negative base-10 log of a molar concentration.

Solved entries (count: 5):
Q) breast line MDA468 / pIC50 / CNC(=O)Nc1ccc(-c2nc(N3CCOCC3)c3cnn(C4CCN(Cc5ccc(F)nc5)CC4)c3n2)cc1 [Example 387] : value?
A) 7.00

Q) breast line MDA468 / pIC50 / CCCCNC(=O)Nc1ccc(-c2nc(N3CCOCC3)c3cnn(C4CCN(Cc5cccnc5)CC4)c3n2)cc1 [Example 212] : value?
A) 5.85

Q) breast line MDA468 / pIC50 / Nc1ccc(-c2nc(N3CCOCC3)c3cnn(C4CCC5(CC4)OCCO5)c3n2)cc1 [Compound 565] : value?
A) 5.14

Q) breast line MDA468 / pIC50 / CNC(=O)Nc1ccc(-c2nc(N3CCOCC3)c3cnn(C4CCN(C(=O)c5ccc(OC)cc5)CC4)c3n2)cc1 [Compound 609] : value?
A) 6.46

Q) breast line MDA468 / pIC50 / CC(=O)Nc1ccc(-c2nc(N3CCOCC3)c3cnn(C4CCN(Cc5ccccc5)CC4)c3n2)cc1 [Example 80] : value?
A) 5.64

---
Q) breast line MDA468 / pIC50 / CNC(=O)Nc1ccc(-c2nc(N3CCOCC3)c3cnn(C4CCN(Cc5cnccc5OC)CC4)c3n2)cc1 [Example 391] : value?
A) 6.70

Q) breast line MDA468 / pIC50 / COC(=O)Nc1ccc(-c2nc(N3CCOCC3)c3cnn(C4CCN(C(=O)c5ccc(F)cc5F)CC4)c3n2)cc1 [Example 449] : value?
A) 5.92
